Reference source: patent US11773078B2

# system_tested: furin (endogenous protease) in U20S cells (Homo sapiens, UniProt P09958)
# Construct: the endogenous protease cleaves GFP; endogenous in cells; host or cells: U2OS cells transduced with a BacMam reporter
# Sequence (P09958 108-794): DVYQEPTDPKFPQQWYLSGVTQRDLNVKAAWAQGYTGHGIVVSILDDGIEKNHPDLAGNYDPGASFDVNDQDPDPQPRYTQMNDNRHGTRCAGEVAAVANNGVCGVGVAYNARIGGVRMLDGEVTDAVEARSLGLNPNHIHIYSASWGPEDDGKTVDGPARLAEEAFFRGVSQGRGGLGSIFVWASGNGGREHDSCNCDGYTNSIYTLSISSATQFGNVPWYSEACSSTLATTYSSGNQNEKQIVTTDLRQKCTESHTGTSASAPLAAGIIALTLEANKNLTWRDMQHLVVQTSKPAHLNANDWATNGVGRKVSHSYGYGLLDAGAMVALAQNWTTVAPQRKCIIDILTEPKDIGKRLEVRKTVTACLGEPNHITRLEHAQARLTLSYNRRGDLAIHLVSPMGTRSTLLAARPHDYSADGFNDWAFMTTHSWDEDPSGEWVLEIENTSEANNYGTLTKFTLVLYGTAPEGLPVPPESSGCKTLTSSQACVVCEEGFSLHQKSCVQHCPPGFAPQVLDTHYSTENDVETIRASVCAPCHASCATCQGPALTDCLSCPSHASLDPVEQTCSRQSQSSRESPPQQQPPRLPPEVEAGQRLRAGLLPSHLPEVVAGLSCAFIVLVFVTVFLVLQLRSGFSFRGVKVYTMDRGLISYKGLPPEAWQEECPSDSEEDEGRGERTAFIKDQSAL
# procedure_text: Furin cell-based assay (image-based, Golgi-targeted GFP with BMP10 furin/PCSK cleavage site);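 further: Read-out is mean GFP fluorescence of Golgi puncta per cell by high-content imaging, retained when furin inhibited, over an eleven-point 0.00017–10 µM series, four-parameter fit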
# measurement_setup: 24-hour incubation, read-out: furin golgi cell pXC50 (converted)
Structures can show the parent of a compound that is named as a salt.
measured_parameter: EC50 (nM)

{"compound": "CCN1CCN(c2ncc(Oc3cc(CN4CCC(CC(=O)O)CC4)cc(-c4cc(Cl)cc(Cl)c4)n3)cn2)CC1", "EC50 / nM": 10}
{"compound": "CN1CCN(c2ncc(Oc3cc(CN4CCC(CB(O)O)CC4)cc(-c4cc(Cl)cc(Cl)c4)n3)cn2)CC1 [Example 318, hydrochloride]", "EC50 / nM": 10}

[A] CC(=O)NCC1CCN(Cc2cc(Oc3ccc(N4CC[N+](CCO)(CCO)CC4)nc3)nc(-c3cc(Cl)cc(Cl)c3)c2)CC1
[B] CN1CCN(c2ncc(N(C)c3cc(CN4CCC(CC(=O)O)CC4)cc(-c4cc(Cl)cc(Cl)c4)n3)cn2)CC1 [Example 388, hydrochloride]
[in] Between A and B , whose recorded EC50 is greater? # reply format: chosen label
[out] B
(B: 50.1 nM, A: 12.6 nM)

[P] CC(=O)NCC1CCN(Cc2cc(Oc3cnc(N4CCN(C(C)CO)CC4)cn3)nc(-c3cc(Cl)cc(Cl)c3)c2)CC1 (stereo not drawn)
[Q] CN1CCN(c2ncc(Oc3cc(CN4CCO[C@H](CCO)CC4)cc(-c4cc(Cl)cc(Cl)c4)n3)cn2)CC1
[in] Consider P and Q . Which of these has its EC50 at a higher number? API: response body contains the label of the selected item.
[out] Q
(Q: 15.8 nM, P: 2.51 nM)

====

# system_tested: Furin (108-574-Tev-Flag-His) enzyme (Homo sapiens, UniProt P09958)
# Construct: Furin (108-574-Tev-Flag-His) enzyme was expressed and purified from CHO cells; TEV cleavage site (C); FLAG (C); His (C); made in house; host or cells: CHO cells
# Sequence (P09958 108-574): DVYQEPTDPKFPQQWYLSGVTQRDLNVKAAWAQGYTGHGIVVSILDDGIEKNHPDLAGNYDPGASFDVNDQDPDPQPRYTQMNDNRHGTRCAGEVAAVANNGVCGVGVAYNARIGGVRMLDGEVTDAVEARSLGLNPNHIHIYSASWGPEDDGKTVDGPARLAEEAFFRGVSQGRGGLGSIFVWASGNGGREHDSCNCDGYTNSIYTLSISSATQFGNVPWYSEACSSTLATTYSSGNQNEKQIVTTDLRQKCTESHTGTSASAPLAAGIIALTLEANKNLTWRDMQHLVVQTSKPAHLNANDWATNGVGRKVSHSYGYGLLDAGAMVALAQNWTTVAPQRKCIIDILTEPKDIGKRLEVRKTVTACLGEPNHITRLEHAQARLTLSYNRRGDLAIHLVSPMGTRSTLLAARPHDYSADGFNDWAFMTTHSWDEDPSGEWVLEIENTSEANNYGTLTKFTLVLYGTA
# procedure_text: Furin enzyme assay
# Type: biochemical
measured_parameter: furin enzyme pIC50

{"smiles_input": "CNC(=O)NCC1CCN(Cc2cc(Oc3cnc(N4CCN(CCCS(C)(=O)=O)CC4)nc3)nc(-c3cc(Cl)cc(Cl)c3)c2)CC1", "system_tested": "Furin (108-574-Tev-Flag-His) enzyme (Homo sapiens, UniProt P09958)", "measured_parameter": "furin enzyme pIC50", "assay_value": 10.1}
{"smiles_input": "CNC(=O)OCC1CCN(Cc2cc(Oc3cnc(N4CCNCC4)nc3)nc(-c3cc(Cl)cc(Cl)c3)c2)CC1", "system_tested": "Furin (108-574-Tev-Flag-His) enzyme (Homo sapiens, UniProt P09958)", "measured_parameter": "furin enzyme pIC50", "assay_value": 8.9}
{"smiles_input": "CN(C)C1CCN(c2ncc(Oc3cc(CN4CCC(CC(=O)O)CC4)cc(-c4cc(Cl)cc(Cl)c4)n3)cn2)CC1", "system_tested": "Furin (108-574-Tev-Flag-His) enzyme (Homo sapiens, UniProt P09958)", "measured_parameter": "furin enzyme pIC50", "assay_value": 8.7}
{"smiles_input": "CC(=O)NCC1CCN(Cc2cc(Oc3cnc(N4CCNCC4)cn3)nc(-c3cc(Cl)cc(Cl)c3)c2)CC1", "system_tested": "Furin (108-574-Tev-Flag-His) enzyme (Homo sapiens, UniProt P09958)", "measured_parameter": "furin enzyme pIC50", "assay_value": 9.6}
